Test system: L02
Assay: Cytotoxicity against human LO2 cells assessed as reduction in cell viability incubated for 24 hrs by MTT assay
Assay type: cell-based
Conditions: L02, 24 h
Measure: IC50 (µM)
Field format: number, assumed µM, no unit text.

Some entries whose results are on file:
> print(dat)
                                 smiles.str  reported.measurement
1  CC(=O)Nc1ccc(S(=O)(=O)N2C/C(=C\c3ccncc3)C(=O)/C(=C/c3ccccc3F)C2)cc1                  12.3
2  CN1C/C(=C\c2ccncc2)C(=O)/C(=C/c2ccccc2F)C1                  14.9
3  O=C1/C(=C/c2ccncc2)CN(S(=O)(=O)c2ccc([N+](=O)[O-])cc2)C/C1=C\c1ccccc1F                  18.4
4  O=C1/C(=C/c2cccnc2)CN(S(=O)(=O)c2ccc([N+](=O)[O-])cc2)C/C1=C\c1ccccc1C(F)(F)F                  15.7
5  CC(=O)Nc1ccc(S(=O)(=O)N2C/C(=C\c3cccnc3)C(=O)/C(=C/c3ccccc3C(F)(F)F)C2)cc1                  15.3
6  COc1cc(/C=C2\CN(C)C/C(=C\c3ccncc3)C2=O)cc(OC)c1OC                  16.4
7  COc1cc(/C=C2\CN(C)C/C(=C\c3cccnc3)C2=O)cc(OC)c1                  18.4
8  O=C1/C(=C/c2ccncc2)CN(S(=O)(=O)c2ccc([N+](=O)[O-])cc2)C/C1=C\c1ccccc1C(F)(F)F                  18.6

QUERY: Given `CN1C/C(=C\c2ccc(C(F)(F)F)cc2)C(=O)/C(=C/c2cccnc2)C1` , respond with its IC50.
RESULT: 15.6

QUERY: Given `O=C1/C(=C/c2ccncc2)CN(S(=O)(=O)c2ccc(Cl)cc2)C/C1=C\c1ccccc1F` , respond with its IC50.
RESULT: 15

###

Test system: SMMC-7721
Experiment: Cytotoxicity against human SMMC7721 cells assessed as reduction in cell viability incubated for 24 hrs by MTT assay
Assay type: functional, cell-based
Settings: SMMC-7721, 24 h
Below is a list of entries, each paired with its recorded pIC50 value.
Answer as the number alone; pIC50 is minus log10 of concentration in mol/L.

Some entries whose results are on file:
> print(dat)
                                 smiles.str  reported.measurement
1  O=C1/C(=C/c2cccnc2)CN(S(=O)(=O)c2ccccc2)C/C1=C\c1ccccc1C(F)(F)F                  4.96
2  N#Cc1ccc(S(=O)(=O)N2C/C(=C\c3ccncc3)C(=O)/C(=C/c3ccccc3F)C2)cc1                  4.79
3  COc1cc(/C=C/C(=O)CC(=O)/C=C/c2ccc(O)c(OC)c2)ccc1O                  4.78
4  COc1cc(/C=C2\CN(C)C/C(=C\c3cccnc3)C2=O)cc(OC)c1OC                  4.69
5  Cc1ccc(S(=O)(=O)N2C/C(=C\c3ccncc3)C(=O)/C(=C/c3ccccc3F)C2)cc1                  4.88
6  O=C1/C(=C/c2cccnc2)CN(S(=O)(=O)c2ccccc2)C/C1=C\c1ccccc1F                  4.72
7  CN1C/C(=C\c2cccnc2)C(=O)/C(=C/c2ccccc2C(F)(F)F)C1                  5.41

QUERY: Given `O=C1/C(=C/c2cccnc2)CNC/C1=C\c1ccccc1C(F)(F)F` , respond with its pIC50.
RESULT: 5.29

###

System: RAW264.7
Test: Antiinflammatory activity in mouse RAW264.7 cells assessed as inhibition of LPS-stimulated TNF-alpha production at 6.0 uM preincubated for 2 hrs followed by LPS stimulaton measured after 22 hrs by ELISA relative to control
Format: functional
Calls of active or inactive are those of the source. The calls are words filed in the database; no cut-off is given here.
Respond only with the outcome that fits, drawn from true (1) for active, false (0) for inactive

Below, 6 compounds whose answers are already recorded.
> print(dat)
                                 smiles.str  group.label
1  O=C1/C(=C/c2ccncc2)CN(S(=O)(=O)c2ccccc2)C/C1=C\c1ccccc1F    false (0)
2                             S=C(S)N1CCCC1     true (1)
3  N#Cc1ccc(S(=O)(=O)N2C/C(=C\c3cccnc3)C(=O)/C(=C/c3ccccc3F)C2)cc1    false (0)
4  N#Cc1ccc(S(=O)(=O)N2C/C(=C\c3cccnc3)C(=O)/C(=C/c3ccccc3C(F)(F)F)C2)cc1     true (1)
5  O=C1/C(=C/c2cccnc2)CN(S(=O)(=O)c2ccc([N+](=O)[O-])cc2)C/C1=C\c1ccccc1F    false (0)
6  O=C1/C(=C/c2cccnc2)CN(S(=O)(=O)c2ccc([N+](=O)[O-])cc2)C/C1=C\c1ccccc1C(F)(F)F     true (1)

Read the next record carefully.
QUERY: Which outcome was assigned to `O=C1/C(=C/c2cccnc2)CN(S(=O)(=O)c2ccc(Cl)cc2)C/C1=C\c1ccccc1F` in this test?
RESULT: false (0)

###

Below is a list of entries, each paired with its recorded pIC50 value.
Test system: SMMC-7721
Assay: Cytotoxicity against human SMMC7721 cells assessed as reduction in cell viability incubated for 24 hrs by MTT assay
Type: functional, cell-based
Conditions: SMMC-7721, 24 h
Answer as the number alone; pIC50 is minus log10 of concentration in mol/L.

> print(dat)
                                 smiles.str  assayed.target  measure  reported.measurement
1  O=C1/C(=C/c2ccncc2)CN(S(=O)(=O)c2ccc(Cl)cc2)C/C1=C\c1ccccc1C(F)(F)F       SMMC-7721    pIC50                  5.26
2  O=C1/C(=C/c2cccnc2)CN(S(=O)(=O)c2ccc(Cl)cc2)C/C1=C\c1ccccc1C(F)(F)F       SMMC-7721    pIC50                  5.31
3  CN1C/C(=C\c2cccnc2)C(=O)/C(=C/c2cc([N+](=O)[O-])ccc2F)C1       SMMC-7721    pIC50                  5.21

QUERY: Given `COc1cccc2c1C(=O)c1c(O)c3c(c(O)c1C2=O)C[C@@](O)(C(=O)CO)C[C@@H]3O[C@H]1C[C@H](N)[C@H](O)[C@H](C)O1` , respond with its pIC50.
RESULT: 5.56

QUERY: Given `CN1C/C(=C\c2cccnc2)C(=O)/C(=C/c2ccccc2F)C1` , respond with its pIC50.
RESULT: 5.27

QUERY: Given `Cc1ccc(S(=O)(=O)N2C/C(=C\c3cccnc3)C(=O)/C(=C/c3ccccc3C(F)(F)F)C2)cc1` , respond with its pIC50.
RESULT: 5.17

QUERY: Given `CN1C/C(=C\c2ccncc2)C(=O)/C(=C/c2ccc(C(F)(F)F)cc2)C1` , respond with its pIC50.
RESULT: 4.75

QUERY: Given `O=C1/C(=C/c2ccncc2)CNC/C1=C\c1ccccc1C(F)(F)F` , respond with its pIC50.
RESULT: 5.35

QUERY: Given `COc1cc(/C=C2\CN(C)C/C(=C\c3cccnc3)C2=O)cc(OC)c1` , respond with its pIC50.
RESULT: 4.75

QUERY: Given `N#Cc1ccc(S(=O)(=O)N2C/C(=C\c3ccncc3)C(=O)/C(=C/c3ccccc3C(F)(F)F)C2)cc1` , respond with its pIC50.
RESULT: 5.02

QUERY: Given `CC(=O)Nc1ccc(S(=O)(=O)N2C/C(=C\c3cccnc3)C(=O)/C(=C/c3ccccc3C(F)(F)F)C2)cc1` , respond with its pIC50.
RESULT: 5.01

QUERY: Given `COc1ccc(/C=C2\CN(C)C/C(=C\c3ccncc3)C2=O)c(OC)c1OC` , respond with its pIC50.
RESULT: 5.04

QUERY: Given `O=C1/C(=C/c2ccncc2)CNC/C1=C\c1ccccc1F` , respond with its pIC50.
RESULT: 4.74

QUERY: Given `Cc1ccc(S(=O)(=O)N2C/C(=C\c3cccnc3)C(=O)/C(=C/c3ccccc3F)C2)cc1` , respond with its pIC50.
RESULT: 4.99

QUERY: Given `CN1C/C(=C\c2ccncc2)C(=O)/C(=C/c2ccccc2C(F)(F)F)C1` , respond with its pIC50.
RESULT: 5.39

QUERY: Given `CN1C/C(=C\c2cccnc2)C(=O)/C(=C/c2ccc(F)cc2Br)C1` , respond with its pIC50.
RESULT: 4.68

QUERY: Given `O=C1/C(=C/c2ccccc2F)CNC/C1=C\c1ccccc1F` , respond with its pIC50.
RESULT: 5.06

QUERY: Given `O=C1/C(=C/c2cccnc2)CN(S(=O)(=O)c2ccc(Br)cc2)C/C1=C\c1ccccc1F` , respond with its pIC50.
RESULT: 5.04
